test: Inhibition of Brugia malayi thymidylate kinase using dTMP substrate by spectrophotometric assay
Outcome Measure: Ki (µM)

In [3]: df
Out[3]:
                                   compound  measurement_unit  experimental_value
0  CCCCCC(CC(=O)CCc1ccc(O)c(OC)c1)n1cc(C)c(=O)[nH]c1=O (stereo not drawn)                µM                6.57
1  CCCCCC(CC(=O)CCc1ccc(O)c(OC)c1)Nc1cc(C)ccn1 (stereo not drawn)                µM                21.6
2  CCCCCC(CC(=O)CCc1ccc(OC(=O)c2ccc(Cl)nc2)c(OC)c1)Nc1cc(C)ccn1 (stereo not drawn)                µM                30.4
3  CCCCCC(CC(=O)CCc1ccc(OS(=O)(=O)c2ccc(C)cc2)c(OC)c1)n1cc(C)c(=O)[nH]c1=O (stereo not drawn)                µM                45.7
4  CCCCCC(CC(=O)CCc1ccc(O)c(OC)c1)Nc1ncccc1C (stereo not drawn)                µM                11.1
5  CCCCC/C=C/C(=O)CCc1ccc(O)c(OC)c1 [SHOGAOL]                µM                10.8
6  CCCCCC(CC(=O)CCc1ccc(O)c(OC)c1)n1cc(Br)c(=O)[nH]c1=O (stereo not drawn)                µM                8.32
7  CCCCCC(CC(=O)CCc1ccc(OC(=O)c2ccco2)c(OC)c1)n1cc(C)c(=O)n(C(=O)c2ccco2)c1=O (stereo not drawn)                µM                20.3
8  CCCCCC(CC(=O)CCc1ccc(O)c(OC)c1)Nc1ccc(C)cn1 (stereo not drawn)                µM                40.6

[I] CCCCCC(CC(=O)CCc1ccc(OC(=O)/C=C/c2ccc(F)cc2)c(OC)c1)n1cc(C)c(=O)[nH]c1=O (stereo not drawn)
[II] CCCCCC(CC(=O)CCc1ccc(O)c(OC)c1)n1cnc2c(N)ncnc21 (stereo not drawn)
[III] CCCCCC(CC(=O)CCc1ccc(OC(=O)c2ccc(OC)cc2)c(OC)c1)n1cc(C)c(=O)n(C(=O)c2ccc(OC)cc2)c1=O (stereo not drawn)
[IV] CCCCCC(CC(=O)CCc1ccc(OS(C)(=O)=O)c(OC)c1)n1cc(C)c(=O)[nH]c1=O (stereo not drawn)
[Q] Please rank these compounds by Ki in descending order. Write the labels, ordered according to the request.
[A] IV, I, III, II
